# System: influenza A/Puerto Rico/8/34 (H1N1)
# RUN_CONDITIONS: /Puerto Rico/8/34, 24 h
Residues, ends and D or L forms follow the SMILES beside them. *: point of attachment. Palmitoyl = CCCCCCCCCCCCCCCC(=O)*
PARAMETER_MEASURED: pIC50
Give bare numbers, as −log10 of the molar value.

[in] Given the compound CCCCCCCCCCCCCCCC(=O)N[C@@H](CCCCN)C(=O)N[C@@H](CCCCN)C(=O)N[C@@H](Cc1c[nH]c2ccccc12)C(=O)N[C@@H](CCCCN)C(=O)N[C@@H](C)C(=O)N[C@@H](CCCNC(=N)N)C(=O)N[C@@H](CC(C)C)C(=O)N1CCC[C@H]1C(=O)N[C@@H](CCCNC(=N)N)C(N)=O [C16-Hp-Jp, C16-KKWKARLPR] (Palmitoyl-KKWKARLPR-NH2) , write its reported pIC50.
[out] 5.61

---

Consider the following molecules; for each one, report its CC50.
Residues, ends and D or L forms follow the SMILES beside them. *: point of attachment. Arachidoyl = CCCCCCCCCCCCCCCCCCCC(=O)*

CCCCCCCCCCCCCCCCCCCC(=O)N[C@@H](CCCCN)C(=O)N[C@@H](CCCCN)C(=O)N[C@@H](Cc1c[nH]c2ccccc12)C(=O)N[C@@H](CCCCN)C(=O)NCC(=O)NCC(=O)NCC(=O)N[C@@H](C)C(=O)N[C@@H](CCCNC(=N)N)C(=O)N[C@@H](CC(C)C)C(=O)N1CCC[C@H]1C(=O)N[C@@H](CCCNC(=N)N)C(N)=O [C20-Hp-GGG-Jp, C20-KKWKGGGARLPR] (Arachidoyl-KKWKGGGARLPR-NH2)    > 200 µM

Next:
[in] Quote CC50 reported for CCCCCCCCCCCCCCCCCCCC(=O)N[C@@H](C)C(=O)N[C@@H](CCCNC(=N)N)C(=O)N[C@@H](CC(C)C)C(=O)N1CCC[C@H]1C(=O)N[C@@H](CCCNC(=N)N)C(=O)NCC(=O)NCC(=O)NCC(=O)N[C@@H](CCCCN)C(=O)N[C@@H](CCCCN)C(=O)N[C@@H](Cc1c[nH]c2ccccc12)C(=O)N[C@@H](CCCCN)C(N)=O [C20-Jp-GGG-Hp, C20-ARLPRGGGKKWK] (Arachidoyl-ARLPRGGGKKWK-NH2) please.
[out] > 200 µM

---

# PROTOCOL_DESCRIPTION: in vitro
# RUN_CONDITIONS: dog
Residues, ends and D or L forms follow the SMILES beside them. *: point of attachment. Stearoyl = CCCCCCCCCCCCCCCCCC(=O)*; Palmitoyl = CCCCCCCCCCCCCCCC(=O)*
PARAMETER_MEASURED: CC50 at 48 h

CCCCCCCCCCCCCCCCCC(=O)N[C@@H](C)C(=O)N[C@@H](CCCNC(=N)N)C(=O)N[C@@H](CC(C)C)C(=O)N1CCC[C@H]1C(=O)N[C@@H](CCCNC(=N)N)C(=O)NCC(=O)NCC(=O)NCC(=O)N[C@@H](CCCCN)C(=O)N[C@@H](CCCCN)C(=O)N[C@@H](Cc1c[nH]c2ccccc12)C(=O)N[C@@H](CCCCN)C(N)=O [C18-Jp-GGG-Hp, C18-ARLPRGGGKKWK] (Stearoyl-ARLPRGGGKKWK-NH2)    > 200 µM
CCCCCCCCCCCCCCCC(=O)N[C@@H](C)C(=O)N[C@@H](CCCNC(=N)N)C(=O)N[C@@H](CC(C)C)C(=O)N1CCC[C@H]1C(=O)N[C@@H](CCCNC(=N)N)C(=O)N[C@@H](CCCCN)C(=O)N[C@@H](CCCCN)C(=O)N[C@@H](Cc1c[nH]c2ccccc12)C(=O)N[C@@H](CCCCN)C(N)=O [C16-Jp-Hp, C16-ARLPRKKWK] (Palmitoyl-ARLPRKKWK-NH2)    > 200 µM

Now consider the entry below.
[in] Indicate its recorded CC50 at 48 h; the compound in question is CCCCCCCCCCCCCCCC(=O)N[C@@H](C)C(=O)N[C@@H](CCCNC(=N)N)C(=O)N[C@@H](CC(C)C)C(=O)N1CCC[C@H]1C(=O)N[C@@H](CCCNC(=N)N)C(=O)NCC(=O)NCC(=O)NCC(=O)N[C@@H](CCCCN)C(=O)N[C@@H](CCCCN)C(=O)N[C@@H](Cc1c[nH]c2ccccc12)C(=O)N[C@@H](CCCCN)C(N)=O [C16-Jp-GGG-Hp, C16-ARLPRGGGKKWK] (Palmitoyl-ARLPRGGGKKWK-NH2)
[out] > 200 µM

---

Could you please report measured CC50 at 48 h for the items listed next?
# PROTOCOL_DESCRIPTION: in vitro
# RUN_CONDITIONS: dog
Residues, ends and D or L forms follow the SMILES beside them. *: point of attachment. Stearoyl = CCCCCCCCCCCCCCCCCC(=O)*; Palmitoyl = CCCCCCCCCCCCCCCC(=O)*

Use the examples below as a reference point.
CCCCCCCCCCCCCCCC(=O)N[C@@H](CCCCN)C(=O)N[C@@H](CCCCN)C(=O)N[C@@H](Cc1c[nH]c2ccccc12)C(=O)N[C@@H](CCCCN)C(=O)NCC(=O)NCC(=O)NCC(=O)N[C@@H](C)C(=O)N[C@@H](CCCNC(=N)N)C(=O)N[C@@H](CC(C)C)C(=O)N1CCC[C@H]1C(=O)N[C@@H](CCCNC(=N)N)C(N)=O [C16-Hp-GGG-Jp, C16-KKWKGGGARLPR] (Palmitoyl-KKWKGGGARLPR-NH2)    > 200 µM
CCCCCCCCCCCCCCCCCC(=O)N[C@@H](CCCCN)C(=O)N[C@@H](CCCCN)C(=O)N[C@@H](Cc1c[nH]c2ccccc12)C(=O)N[C@@H](CCCCN)C(=O)NCC(=O)NCC(=O)NCC(=O)N[C@@H](C)C(=O)N[C@@H](CCCNC(=N)N)C(=O)N[C@@H](CC(C)C)C(=O)N1CCC[C@H]1C(=O)N[C@@H](CCCNC(=N)N)C(N)=O [C18-Hp-GGG-Jp, C18-KKWKGGGARLPR] (Stearoyl-KKWKGGGARLPR-NH2)    > 200 µM

[in] In one line, give reported CC50 at 48 h of the entry CCCCCCCCCCCCCCCC(=O)N[C@@H](CCCCN)C(=O)N[C@@H](CCCCN)C(=O)N[C@@H](Cc1c[nH]c2ccccc12)C(=O)N[C@@H](CCCCN)C(=O)N[C@@H](C)C(=O)N[C@@H](CCCNC(=N)N)C(=O)N[C@@H](CC(C)C)C(=O)N1CCC[C@H]1C(=O)N[C@@H](CCCNC(=N)N)C(N)=O [C16-Hp-Jp, C16-KKWKARLPR] (Palmitoyl-KKWKARLPR-NH2) .
[out] > 200 µM

---

Assign IC50 to each entry below.
# Test system: influenza A/Puerto Rico/8/34 (H1N1)
# RUN_CONDITIONS: /Puerto Rico/8/34, 24 h
Residues, ends and D or L forms follow the SMILES beside them. *: point of attachment. Arachidoyl = CCCCCCCCCCCCCCCCCCCC(=O)*; Stearoyl = CCCCCCCCCCCCCCCCCC(=O)*; Palmitoyl = CCCCCCCCCCCCCCCC(=O)*
Answers are plain numbers, in µM.

Worked set:
CCCCCCCCCCCCCCCC(=O)N[C@@H](CCCCN)C(=O)N[C@@H](CCCCN)C(=O)N[C@@H](Cc1c[nH]c2ccccc12)C(=O)N[C@@H](CCCCN)C(=O)NCC(=O)NCC(=O)NCC(=O)N[C@@H](C)C(=O)N[C@@H](CCCNC(=N)N)C(=O)N[C@@H](CC(C)C)C(=O)N1CCC[C@H]1C(=O)N[C@@H](CCCNC(=N)N)C(N)=O [C16-Hp-GGG-Jp, C16-KKWKGGGARLPR] (Palmitoyl-KKWKGGGARLPR-NH2)    8.05
CCCCCCCCCCCCCCCCCCCC(=O)N[C@@H](C)C(=O)N[C@@H](CCCNC(=N)N)C(=O)N[C@@H](CC(C)C)C(=O)N1CCC[C@H]1C(=O)N[C@@H](CCCNC(=N)N)C(=O)NCC(=O)NCC(=O)NCC(=O)N[C@@H](CCCCN)C(=O)N[C@@H](CCCCN)C(=O)N[C@@H](Cc1c[nH]c2ccccc12)C(=O)N[C@@H](CCCCN)C(N)=O [C20-Jp-GGG-Hp, C20-ARLPRGGGKKWK] (Arachidoyl-ARLPRGGGKKWK-NH2)    4.04
CCCCCCCCCCCCCCCC(=O)N[C@@H](C)C(=O)N[C@@H](CCCNC(=N)N)C(=O)N[C@@H](CC(C)C)C(=O)N1CCC[C@H]1C(=O)N[C@@H](CCCNC(=N)N)C(=O)NCC(=O)NCC(=O)NCC(=O)N[C@@H](CCCCN)C(=O)N[C@@H](CCCCN)C(=O)N[C@@H](Cc1c[nH]c2ccccc12)C(=O)N[C@@H](CCCCN)C(N)=O [C16-Jp-GGG-Hp, C16-ARLPRGGGKKWK] (Palmitoyl-ARLPRGGGKKWK-NH2)    6.79

Let's switch to this compound now.
[in] Write down IC50 measured for item CCCCCCCCCCCCCCCCCC(=O)N[C@@H](C)C(=O)N[C@@H](CCCNC(=N)N)C(=O)N[C@@H](CC(C)C)C(=O)N1CCC[C@H]1C(=O)N[C@@H](CCCNC(=N)N)C(=O)NCC(=O)NCC(=O)NCC(=O)N[C@@H](CCCCN)C(=O)N[C@@H](CCCCN)C(=O)N[C@@H](Cc1c[nH]c2ccccc12)C(=O)N[C@@H](CCCCN)C(N)=O [C18-Jp-GGG-Hp, C18-ARLPRGGGKKWK] (Stearoyl-ARLPRGGGKKWK-NH2)
[out] 5.09

From: paper PMC4782136
